ASSAY PROCEDURE: Compartmental pharmacokinetic modeling of morphine and morphine glucuronides
Format: in vivo, human
MEASUREMENT SETUP: both, human, plasma, intravenous, 0.1 mg/kg
MEASURE: Vd (L)
Numbers only, in L.

// Vd lookup, compound = CN1CC[C@]23c4c5ccc(O)c4O[C@H]2[C@@H](O[C@@H]2O[C@H](C(=O)O)[C@@H](O)[C@H](O)[C@H]2O)C=C[C@H]3[C@H]1C5 [Morphine-6-glucuronide, morphine-6-glucuronide] , result: 15

###

ASSAY PROCEDURE: clinical
MEASUREMENT SETUP: both, human, plasma, iv, 0.1 mg/kg
MEASURE: Cmax (ng/mL)
One number for each entry, in ng/mL.

Form: compound = CN1CC[C@]23c4c5ccc(O)c4O[C@H]2[C@@H](O[C@@H]2O[C@H](C(=O)O)[C@@H](O)[C@H](O)[C@H]2O)C=C[C@H]3[C@H]1C5 [Morphine-6-glucuronide, morphine-6-glucuronide] ; Cmax = 24.9

###

ASSAY PROCEDURE: Compartmental pharmacokinetic modeling of morphine and morphine glucuronides
Format: in vivo, human
MEASUREMENT SETUP: both, human, plasma, intravenous, CLEM-6-G (elimination clearance represented by metabolism to morphine-glucuronide), with cyclosporine; CLE × percent eliminated as glucuronide; mean ± SD
MEASURE: clearance (mL/min)
Answers are plain numbers, in mL/min.

Form field clearance, entry CN1CC[C@]23c4c5ccc(O)c4O[C@H]2[C@@H](O[C@@H]2O[C@H](C(=O)O)[C@@H](O)[C@H](O)[C@H]2O)C=C[C@H]3[C@H]1C5 [Morphine-6-glucuronide, morphine-6-glucuronide] : 103

###

ASSAY PROCEDURE: Compartmental pharmacokinetic modeling of morphine and morphine glucuronides
Type: in vivo, human
MEASUREMENT SETUP: both, human, plasma, intravenous
MEASURE: Vd (L)
Answers are plain numbers, in L.

Vd for CN1CC[C@]23c4c5ccc(O)c4O[C@H]2[C@@H](O[C@@H]2O[C@H](C(=O)O)[C@@H](O)[C@H](O)[C@H]2O)C=C[C@H]3[C@H]1C5 [Morphine-6-glucuronide, morphine-6-glucuronide] is 15

###

ASSAY PROCEDURE: clinical
MEASUREMENT SETUP: both, human, plasma, iv, 0.1 mg/kg
MEASURE: AUC(0-inf) (ng·h/mL)
Numbers only, in ng·h/mL.

Value of AUC(0-inf) reported for the molecule CN1CC[C@]23c4c5ccc(O)c4O[C@H]2[C@@H](O[C@@H]2O[C@H](C(=O)O)[C@@H](O)[C@H](O)[C@H]2O)C=C[C@H]3[C@H]1C5 [Morphine-6-glucuronide, morphine-6-glucuronide] is 117

###

ASSAY PROCEDURE: Compartmental pharmacokinetic modeling of morphine and morphine glucuronides
Type: in vivo, human
MEASUREMENT SETUP: both, human, plasma, intravenous, 0.1 mg/kg, ClE (glucuronide elimination clearance), control, median (range)
MEASURE: clearance (mL/min)
Answers are plain numbers, in mL/min.

Value of measured clearance for the entry CN1CC[C@]23c4c5ccc(O)c4O[C@H]2[C@@H](O[C@@H]2O[C@H](C(=O)O)[C@@H](O)[C@H](O)[C@H]2O)C=C[C@H]3[C@H]1C5 [Morphine-6-glucuronide, morphine-6-glucuronide] : 160
